// reported pIC50 for each item listed
tested_system: BTK (Homo sapiens)
Construct: purchased Nanosyn, Santa Clara, Calif; host or cells: 293HEK
Sequence (Q06187 whole entry): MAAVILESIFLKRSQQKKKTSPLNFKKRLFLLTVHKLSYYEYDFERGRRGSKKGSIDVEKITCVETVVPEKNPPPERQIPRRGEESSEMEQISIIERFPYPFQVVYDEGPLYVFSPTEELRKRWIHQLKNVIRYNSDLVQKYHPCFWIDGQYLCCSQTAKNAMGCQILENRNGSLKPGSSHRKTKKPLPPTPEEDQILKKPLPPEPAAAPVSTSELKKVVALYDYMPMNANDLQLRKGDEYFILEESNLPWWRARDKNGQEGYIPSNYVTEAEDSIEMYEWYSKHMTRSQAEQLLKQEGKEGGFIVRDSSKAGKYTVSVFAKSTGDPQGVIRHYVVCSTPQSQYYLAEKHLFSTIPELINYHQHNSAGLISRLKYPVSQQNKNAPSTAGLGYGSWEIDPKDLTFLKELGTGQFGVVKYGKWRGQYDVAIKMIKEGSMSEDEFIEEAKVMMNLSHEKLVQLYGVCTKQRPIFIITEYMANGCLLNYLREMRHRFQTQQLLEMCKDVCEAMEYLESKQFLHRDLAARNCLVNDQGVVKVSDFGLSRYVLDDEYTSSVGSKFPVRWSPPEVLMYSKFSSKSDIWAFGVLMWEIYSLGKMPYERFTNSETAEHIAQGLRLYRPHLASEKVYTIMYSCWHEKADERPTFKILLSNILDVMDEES
method_notes: BTK kinase electrophoretic mobility shift assay (MSA)
Format: biochemical
conditions: 50 μM ATP, 0.5 nM BTK enzyme (Nanosyn-293HEK, WT), 3 hours at 25° C.; all examples except 50, 51, 62 and 63; read-out: BTK IC50
pIC50: −log10 of the molar value.

{"molecule": "C=CC(=O)N1CCN(C2CCNc3c2nn(-c2ccc(Oc4ccccc4)cc2Cl)c3C(N)=O)CC1 (stereo not shown)", "pIC50": 7.48}
{"molecule": "C=CC(=O)N1CCN(C2CCNc3c2nn(-c2ccc(Oc4ccccc4)cc2)c3C(N)=O)CC1 (stereo not shown)", "pIC50": 9.00}
{"molecule": "C=CC(=O)N1C[C@@H]2CN(C3CCNc4c3nn(-c3ccc(Oc5ccccc5)cc3)c4C(N)=O)C[C@@H]2C1 (mixture of isomers)", "pIC50": 7.18}
{"molecule": "C=CC(=O)N1CC(N2CCNc3c2nn(-c2ccc(Oc4ccc(F)cc4F)cc2)c3C(N)=O)C1", "pIC50": 8.28}
{"molecule": "C=CC(=O)N1CCN([C@@H]2CCNc3c2nn(-c2ccc(Oc4ccccc4)cc2)c3C(N)=O)[C@@H](C)C1 (single isomer, unassigned)", "pIC50": 7.74}
{"molecule": "C=CC(=O)N1CCC(C2CCNc3c2nn(-c2ccc(Oc4ccc(OC)cc4)cc2)c3C(N)=O)CC1 (stereo not shown)", "pIC50": 8.57}
{"molecule": "C=CC(=O)N1CCC[C@H]([C@@H]2CCNc3c2nn(-c2ccc(Oc4ccccc4)cc2)c3C(N)=O)C1 (racemic)", "pIC50": 8.33}
